- System: TLR2 induced IL-6 in peripheral blood mononuclear cells (PBMCs)
- EXPERIMENTAL_DETAILS: PBMC TLR2 Induced IL-6 Assay
- Type: cell-based
- STATED_CONDITIONS: human PBMCs, lipoteichoic acid 10 μg/ml 5 h, IL-6 by ELISA; value marked * = EC50; read-out: Cell EC50 (*)
QUANTITY_KIND: EC50 (nM)

COMPOUND	STUDY_SYSTEM	VALUE_REPORTED
CC(C)(O)[C@H](F)CNC(=O)c1cnc(Nc2ncc(C#N)c(N)n2)cc1NC1CC1 [Example 154]	TLR2 induced IL-6 in peripheral blood mononuclear cells (PBMCs)	529

Where do these numbers come from? They come from patent US10544133B2.
